meta.source: ChEMBL document CHEMBL1143835

Test system: Cutibacterium acnes
experiment: Antibacterial activity against drug-resistant Propionibacterium acnes SW17 after 48 hrs by broth microdilution method
Format: functional
readout-kind: MIC

{"columns": ["structure-smiles", "measured-value"],
 "data": [
  ["CN(C)[C@@H]1C(O)=C(C(N)=O)C(=O)[C@@]2(O)C(O)=C3C(=O)c4c(O)cccc4[C@@](C)(O)[C@H]3C[C@@H]12", "0.25 µg/mL"],
  ["CCC[C@@H]1C[C@@H](C(=O)N[C@@H]([C@H]2O[C@H](SC)[C@H](O)[C@@H](O)[C@H]2O)[C@H](C)Cl)N(C)C1", "≤ 0.06 µg/mL"],
  ["CC[C@H]1OC(=O)[C@H](C)[C@@H](O[C@H]2C[C@@](C)(OC)[C@@H](O)[C@H](C)O2)[C@H](C)[C@@H](O[C@@H]2O[C@H](C)C[C@H](N(C)C)[C@H]2O)[C@](C)(O)C[C@@H](C)C(=O)[C@H](C)[C@@H](O)[C@]1(C)O", "≤ 0.06 µg/mL"],
  ["CC[C@H]1OC(=O)[C@H](C)[C@@H](O[C@H]2C[C@@](C)(OC)[C@@H](O)[C@H](C)O2)[C@H](C)[C@@H](O[C@@H]2O[C@H](C)C[C@H](N(C)C)[C@H]2O)[C@](C)(OC)C[C@@H](C)C(=O)[C@H](C)[C@H]2[C@H](SCCn3cnc4cccnc43)C(=O)O[C@@]21C", "≤ 0.06 µg/mL"]
]}

====

Test system: Cutibacterium acnes
experiment: Antibacterial activity against drug-resistant Propionibacterium acnes SW101CDA after 48 hrs by broth microdilution method
Assay type: functional
readout-kind: MIC

{"columns": ["structure-smiles", "target-of-assay", "readout-kind", "measured-value"],
 "data": [
  ["CC[C@H]1OC(=O)[C@H](C)[C@@H](O[C@H]2C[C@@](C)(OC)[C@@H](O)[C@H](C)O2)[C@H](C)[C@@H](O[C@@H]2O[C@H](C)C[C@H](N(C)C)[C@H]2O)[C@](C)(O)C[C@@H](C)C(=O)[C@H](C)[C@@H](O)[C@]1(C)O", "Cutibacterium acnes", "MIC", "> 512 µg/mL"],
  ["CCC[C@@H]1C[C@@H](C(=O)N[C@@H]([C@H]2O[C@H](SC)[C@H](O)[C@@H](O)[C@H]2O)[C@H](C)Cl)N(C)C1", "Cutibacterium acnes", "MIC", "≥ 512 µg/mL"],
  ["CN(C)[C@@H]1C(O)=C(C(N)=O)C(=O)[C@@]2(O)C(O)=C3C(=O)c4c(O)cccc4[C@@](C)(O)[C@H]3C[C@@H]12", "Cutibacterium acnes", "MIC", "≤ 0.06 µg/mL"],
  ["CC[C@H]1OC(=O)[C@H](C)[C@@H](O[C@H]2C[C@@](C)(OC)[C@@H](O)[C@H](C)O2)[C@H](C)[C@@H](O[C@@H]2O[C@H](C)C[C@H](N(C)C)[C@H]2O)[C@](C)(OC)C[C@@H](C)C(=O)[C@H](C)[C@H]2[C@H](SCCn3cnc4cccnc43)C(=O)O[C@@]21C", "Cutibacterium acnes", "MIC", "64 µg/mL"]
]}

====

Test system: Propionibacterium granulosum
experiment: Antibacterial activity against drug-resistant Propionibacterium granulosum QK6/92 after 48 hrs by broth microdilution method
Listed here are compounds together with their documented MIC.
readout-kind: MIC (µg/mL)

{"columns": ["structure-smiles", "readout-kind", "measured-value"],
 "data": [
  ["CC[C@H]1OC(=O)[C@H](C)[C@@H](O[C@H]2C[C@@](C)(OC)[C@@H](O)[C@H](C)O2)[C@H](C)[C@@H](O[C@@H]2O[C@H](C)C[C@H](N(C)C)[C@H]2O)[C@](C)(O)C[C@@H](C)C(=O)[C@H](C)[C@@H](O)[C@]1(C)O", "MIC", 0.5],
  ["CN(C)[C@@H]1C(O)=C(C(N)=O)C(=O)[C@@]2(O)C(O)=C3C(=O)c4c(O)cccc4[C@@](C)(O)[C@H]3C[C@@H]12", "MIC", 1],
  ["CCC[C@@H]1C[C@@H](C(=O)N[C@@H]([C@H]2O[C@H](SC)[C@H](O)[C@@H](O)[C@H]2O)[C@H](C)Cl)N(C)C1", "MIC", 1],
  ["CC[C@H]1OC(=O)[C@H](C)[C@@H](O[C@H]2C[C@@](C)(OC)[C@@H](O)[C@H](C)O2)[C@H](C)[C@@H](O[C@@H]2O[C@H](C)C[C@H](N(C)C)[C@H]2O)[C@](C)(OC)C[C@@H](C)C(=O)[C@H](C)[C@H]2[C@H](SCCn3cnc4cccnc43)C(=O)O[C@@]21C", "MIC", 0.125]
]}
